Molecular target: presynaptic naturally-expressed α4β2-containing nicotinic receptors (Rattus norvegicus, UniProt P09483+P12390)
Sequence (P09483 31-630): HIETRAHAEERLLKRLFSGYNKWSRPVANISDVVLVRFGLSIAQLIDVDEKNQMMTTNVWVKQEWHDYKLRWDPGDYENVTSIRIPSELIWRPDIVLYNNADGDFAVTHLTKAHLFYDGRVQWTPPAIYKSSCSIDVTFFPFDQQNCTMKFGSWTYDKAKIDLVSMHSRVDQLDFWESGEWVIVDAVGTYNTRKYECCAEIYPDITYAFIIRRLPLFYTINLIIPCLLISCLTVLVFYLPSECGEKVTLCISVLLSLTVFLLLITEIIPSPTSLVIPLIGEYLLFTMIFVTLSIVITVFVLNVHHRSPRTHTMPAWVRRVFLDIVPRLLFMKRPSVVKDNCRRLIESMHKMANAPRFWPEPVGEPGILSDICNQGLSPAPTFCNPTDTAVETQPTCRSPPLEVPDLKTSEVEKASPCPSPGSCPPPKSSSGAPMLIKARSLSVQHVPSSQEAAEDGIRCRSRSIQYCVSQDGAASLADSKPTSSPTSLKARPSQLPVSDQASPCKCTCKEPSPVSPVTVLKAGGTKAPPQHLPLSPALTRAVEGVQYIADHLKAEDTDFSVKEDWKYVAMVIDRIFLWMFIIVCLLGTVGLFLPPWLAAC
Sequence (P12390 25-500): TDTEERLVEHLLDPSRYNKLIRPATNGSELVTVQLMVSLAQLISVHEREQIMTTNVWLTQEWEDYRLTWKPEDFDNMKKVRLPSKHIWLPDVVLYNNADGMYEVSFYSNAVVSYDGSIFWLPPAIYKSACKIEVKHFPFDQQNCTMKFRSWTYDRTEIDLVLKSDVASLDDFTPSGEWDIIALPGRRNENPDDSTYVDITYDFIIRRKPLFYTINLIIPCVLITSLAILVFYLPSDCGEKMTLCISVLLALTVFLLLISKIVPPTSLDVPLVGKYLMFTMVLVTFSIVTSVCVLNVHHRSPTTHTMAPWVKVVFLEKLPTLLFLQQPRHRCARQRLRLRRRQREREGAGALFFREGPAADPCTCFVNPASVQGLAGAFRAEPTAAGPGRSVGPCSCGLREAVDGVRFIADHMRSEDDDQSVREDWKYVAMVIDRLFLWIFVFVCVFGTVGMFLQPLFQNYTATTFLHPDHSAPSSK
Test: Nicotine-evoked [3H]-dopamine release from rat striatal synaptosomes
Conditions: read-out: DA Release IC50, 10 μM nicotine-evoked [3H]-dopamine release, mean (95% CI)
measurement_type: pIC50
Please report pIC50 as the negative decimal logarithm of the molar concentration, giving only the number.

{"compound": "Clc1ccc2c(c1)N=C(N1CCNCC1)c1ccccc1N2 [N-desmethylclozapine]", "pIC50": 5.68}

[ask] I am curious: what pIC50 value has been reported for CN(C)CCCN1c2ccccc2Sc2ccc(Cl)cc21 [Chlorpromazine, chlorpromazine] ?
[reply] 5.55

###

Target: α4β2 nicotinic receptors stably transfected in SH-EP1 cells (Homo sapiens, UniProt P17787+P43681)
Sequence (P43681 29-627 limits assumed): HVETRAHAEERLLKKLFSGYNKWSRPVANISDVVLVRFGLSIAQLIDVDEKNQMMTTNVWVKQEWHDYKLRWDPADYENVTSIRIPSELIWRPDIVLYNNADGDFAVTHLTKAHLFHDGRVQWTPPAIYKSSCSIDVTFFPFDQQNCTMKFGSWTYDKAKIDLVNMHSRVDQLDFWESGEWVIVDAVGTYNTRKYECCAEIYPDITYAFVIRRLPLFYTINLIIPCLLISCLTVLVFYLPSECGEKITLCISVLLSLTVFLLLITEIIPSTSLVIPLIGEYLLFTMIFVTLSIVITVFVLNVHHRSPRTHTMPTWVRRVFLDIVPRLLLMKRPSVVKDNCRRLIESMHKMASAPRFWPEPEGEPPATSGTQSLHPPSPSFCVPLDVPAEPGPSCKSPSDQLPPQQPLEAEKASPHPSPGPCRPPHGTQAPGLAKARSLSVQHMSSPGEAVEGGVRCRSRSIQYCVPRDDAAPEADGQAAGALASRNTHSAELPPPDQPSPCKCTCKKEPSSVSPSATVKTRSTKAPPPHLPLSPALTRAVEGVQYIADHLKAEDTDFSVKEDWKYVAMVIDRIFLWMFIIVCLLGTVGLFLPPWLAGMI
Sequence (P17787 26-502): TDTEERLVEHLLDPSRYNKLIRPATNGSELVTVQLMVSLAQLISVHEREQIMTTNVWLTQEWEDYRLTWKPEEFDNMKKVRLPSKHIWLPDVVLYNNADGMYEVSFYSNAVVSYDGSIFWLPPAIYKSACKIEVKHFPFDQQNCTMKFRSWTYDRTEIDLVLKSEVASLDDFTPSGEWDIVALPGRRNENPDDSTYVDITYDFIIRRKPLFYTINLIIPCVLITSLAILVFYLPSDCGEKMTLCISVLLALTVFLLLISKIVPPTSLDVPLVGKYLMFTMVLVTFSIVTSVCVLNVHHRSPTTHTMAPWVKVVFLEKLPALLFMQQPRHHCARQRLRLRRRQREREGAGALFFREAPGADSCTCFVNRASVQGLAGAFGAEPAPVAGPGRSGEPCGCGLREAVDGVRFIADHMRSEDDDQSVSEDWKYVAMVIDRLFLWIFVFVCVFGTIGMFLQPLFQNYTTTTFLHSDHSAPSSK
Assay: 86Rb+ efflux in α4β2/SH-EP1 cells
measurement_type: pIC50
Please report pIC50 as the negative decimal logarithm of the molar concentration, giving only the number.

[ask] I am curious: what pIC50 value has been reported for Clc1ccc2c(c1)N=C(N1CCNCC1)c1ccccc1N2 ?
[reply] 5.68

###

Target: α7 NNRs (Rattus norvegicus, UniProt Q05941)
Sequence (Q05941 23-502): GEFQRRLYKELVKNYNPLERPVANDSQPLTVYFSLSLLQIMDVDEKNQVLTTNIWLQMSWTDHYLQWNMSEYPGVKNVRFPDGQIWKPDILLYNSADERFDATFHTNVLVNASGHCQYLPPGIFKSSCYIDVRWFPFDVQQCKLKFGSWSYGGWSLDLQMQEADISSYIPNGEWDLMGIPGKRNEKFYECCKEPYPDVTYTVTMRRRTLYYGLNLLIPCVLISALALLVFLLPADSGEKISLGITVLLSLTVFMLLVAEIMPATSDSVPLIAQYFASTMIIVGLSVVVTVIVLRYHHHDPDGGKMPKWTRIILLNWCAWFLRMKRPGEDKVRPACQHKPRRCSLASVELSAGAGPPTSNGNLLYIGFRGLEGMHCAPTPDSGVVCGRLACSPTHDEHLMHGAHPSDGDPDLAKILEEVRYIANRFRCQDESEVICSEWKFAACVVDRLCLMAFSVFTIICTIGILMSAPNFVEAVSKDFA
Experiment: Epibatidine-evoked [3H]-norepinephrine release from rat hippocampal slices
Measured IC50, listed per entry.
Use nM as the unit, but write only the number.

{"structure_smiles": "Clc1ccc2c(c1)N=C(N1CCNCC1)c1ccccc1N2", "IC50 (nM)": 2200}

--- query ---
[ask] Please tell me: IC50 of CN(C)CCCN1c2ccccc2Sc2ccc(Cl)cc21 , system α7 NNRs (Rattus norvegicus, UniProt Q05941)?
[reply] 1700
